# EXPERIMENTAL_TARGET: RNA-editing ligase 1, mitochondrial (Trypanosoma brucei brucei)
# EXPERIMENTAL_PROTOCOL: TbREL1 RNA ligase inhibitors, primary screen, biochemical, FRET fluorescence (AID 1117264);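 also: 0% = plate median of test wells and 100% = NSC42067 control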
# EXPERIMENTAL_CONDITIONS: TbREL1 RNA ligation, at 9.66 µM, stronger effect = higher value
The campaign covered roughly 89,000 compounds. About 440 (0.49%) were called active. This is one part of a sample in which actives are shown more often than they occur.
PROPERTY: inhibition (%)
Respond with the bare value in %.

Complete the entry with inhibition for "Cc1ccnc(NC(=O)c2ccco2)n1"
2

Return value of inhibition for input "Cc1sc2ncn(CC(=O)NCCN(C)C)c(=O)c2c1S(=O)(=O)N1CCC(C)CC1" , no commentary.
-1.59

# return recorded inhibition for entry "Nc1nonc1-n1nnc(C(=O)N/N=C/C2CCCCC2)c1-c1ccccc1"
2.56

Fill in reported inhibition for this entry: "Cc1cc(=O)oc2cc(OCC(=O)Nc3nnc(C4CC4)s3)ccc12"
4.82

Find the measured inhibition of "CC1CCN(S(=O)(=O)c2ccc3[nH]c(=O)ccc3c2)CC1" and report it.
2.13

Specify measured inhibition for "CC(=O)Nc1ccc(-c2csc(NC=C3C(=O)OC(C)(C)OC3=O)n2)cc1" .
0.47

Supply inhibition value. Item: COc1ccc(N2C(=O)c3ccccc3NC2c2ccc(OC)c(CN3CCOCC3)c2)cc1 (stereo unspecified)
0.23

Report inhibition for "CCCOc1cccc(C(=O)Nc2ccccc2C(=O)N2CCN(C)CC2)c1"
0.64

Write down inhibition measured for item CCCCN(C1CCS(=O)(=O)C1)S(=O)(=O)c1ccc(C(C)C)cc1 (stereo unspecified)
0.44

Annotate the compound "COc1cc(NC(=O)CCS(=O)(=O)c2ccc3c(c2)oc(=O)n3C)cc(OC)c1" with its measured inhibition.
12.5

Could you please provide reported inhibition for COc1ccc(C(C(=O)Nc2c(C)cccc2C)N2CCN(c3ccc(C)cc3)CC2)cc1 (stereo unspecified) ? Thanks!
23.2

For the compound "CC1(C)Cc2c(sc(NC(=O)C(=O)N3CCOCC3)c2C#N)CO1" , give its measured inhibition value.
-1.21

# return recorded inhibition for input "CC(C)Cc1nnc(NC(=O)CN2C(=O)NC3(CCCCC3)C2=O)s1"
4.69

Determine its reported inhibition: "CC(=O)Nc1ccc(NC(=O)CSC2=NS(=O)(=O)c3ccccc3N2)cc1"
2.64

Could you please provide reported inhibition for "O=C(Nc1ccccc1N1CCN(C(=O)c2ccccc2)CC1)c1ccco1" ? Thanks!
-1.42

Answer with reported inhibition of "O=C(CN1CCN(c2ccccn2)CC1)NCc1cccs1"
-2.97

Give the value of inhibition reported for the following: CC1CCCCC12NC(=O)N(CC(=O)N1CCN(c3ccccc3)CC1)C2=O (stereo unspecified)
-1.93

Answer with reported inhibition of "C[C@H](NC(=O)c1ccccc1Cl)C(=O)OCC(=O)N1CCN(c2ccccc2)CC1"
-4.27

Identify measured inhibition associated with Cc1cc(NC(=O)C(C)N2C(=O)c3ccccc3S2(=O)=O)no1 (stereo unspecified)
3.27

// Input: "O=C(Nc1ccc2nccnc2c1)c1ccco1" . Output its inhibition only.
-2.66

Tell me measured inhibition for COC(=O)C1CN(CCc2ccccc2)CCS(=O)(=O)N1Cc1cccc(Cl)c1 (stereo unspecified) please.
1.04

Please list inhibition recorded for the compound "O=C(Nc1ccon1)c1nc[nH]c1C(=O)NCc1ccccc1"
5.43

Return inhibition (reported value) for this compound: CCC1CCCCN1CCCNC(=O)C1CCC(Cn2c(=O)[nH]c3ccccc3c2=O)CC1 (stereo unspecified)
0.83

Give the value of inhibition reported for the following: "Cc1ccc(CN(Cc2cccnc2)C(=S)Nc2cccc(Cl)c2C)cc1"
-3.35

Report inhibition, nothing else, for this compound: "COc1cc(S(=O)(=O)N2CCN(C(=O)C3CC3)CC2)ccc1NC(C)=O"
4.21

For the compound "CC(C)(C)OC(=O)c1c(N)n(CCCN2CCCC2=O)c2nc3ccccc3nc12" , report inhibition.
-0.01

// Input: "C=CCNC(=S)NNC(=O)c1cc(Cl)ccc1OC" . Output its inhibition only.
-1.18

Provide measured inhibition value, entry: "O=C(OCC(=O)N1CCCC1)c1ccc(Cl)nc1"
4.11

Provide inhibition value for the following compound: "Cc1cc(=O)[nH]c(SCC(=O)Nc2ccc(Cl)cc2C)n1"
6.53

Name the recorded inhibition of the item "O=C(CSc1nc(O)c(Cc2ccccc2)c(=O)[nH]1)Nc1nc2c(s1)CCCC2" in your answer.
-3.09

Please give measured inhibition of the following entry: "COc1ccc(N(Cc2ccc(N(C)C)cc2)C(=O)c2ccc(S(C)(=O)=O)cc2)cc1"
-9.41

Return reported inhibition. Input compound: CCCCCn1c(=O)[nH]c2cc(C(=O)NCCCN3CCCCC3C)ccc2c1=O (stereo unspecified)
11.5

Please report inhibition for the following compound: "Cc1ccccc1NC(=S)N(CCCN1CCOCC1)Cc1cccs1"
-3.36

Supply inhibition value. Item: "Cc1nc(Cl)c(C#N)c2c1CCCC2"
8.75

Look up and state reported inhibition for CCC(C)C(N=C1NS(=O)(=O)c2ccccc21)C(=O)N1CCC(C)CC1 (stereo unspecified)
-0.06

State, in one line, measured inhibition of "Nc1ccc2nc3c(=O)[nH]c(=S)[nH]c3nc2c1"
50.5

###

For each record, write down the corresponding inhibition.
# EXPERIMENTAL_TARGET: RNA-editing ligase 1, mitochondrial (Trypanosoma brucei brucei) (UniProt P86926)
# Sequence (P86926 whole entry, looked up): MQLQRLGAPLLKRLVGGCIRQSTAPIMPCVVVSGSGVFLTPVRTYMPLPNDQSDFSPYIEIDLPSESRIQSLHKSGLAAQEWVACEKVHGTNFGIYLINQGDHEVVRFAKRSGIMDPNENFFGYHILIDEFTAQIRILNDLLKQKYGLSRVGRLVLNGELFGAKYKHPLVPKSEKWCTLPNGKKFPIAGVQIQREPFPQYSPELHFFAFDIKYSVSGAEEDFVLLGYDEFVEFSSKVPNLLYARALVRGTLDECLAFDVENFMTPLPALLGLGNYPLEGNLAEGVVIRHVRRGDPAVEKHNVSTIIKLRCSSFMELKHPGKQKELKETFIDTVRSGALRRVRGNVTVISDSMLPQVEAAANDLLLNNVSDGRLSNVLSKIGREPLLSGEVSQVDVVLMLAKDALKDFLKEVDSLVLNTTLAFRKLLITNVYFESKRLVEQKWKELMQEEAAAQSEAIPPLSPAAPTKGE
# EXPERIMENTAL_PROTOCOL: TbREL1 RNA ligase inhibitors, primary screen, biochemical, FRET fluorescence (AID 1117264);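 also: 0% = plate median of test wells and 100% = NSC42067 control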
# EXPERIMENTAL_CONDITIONS: TbREL1 RNA ligation, at 9.66 µM, stronger effect = higher value
Out of some 89,000 compounds screened, about 440 (0.49%) were called active. Many of the other results were omitted from the sample, so actives are more common in it than they were.
Numbers only; they are read as %.

Note inhibition for the compound shown: O=C(CCCCCN1C(=O)C2C3C=CC(C3)C2C1=O)Nc1ccccn1 (centres undefined)
-1.93

Supply recorded inhibition for "Cn1c(=O)c2c(nc(NCc3ccccc3)n2CC(N)=O)n(C)c1=O" here.
-2.6

Write down inhibition measured for item "O=C1NC[C@H](Cc2ccc(O)cc2)N(C[C@H]2CCCN2C[C@H](Cc2ccccc2)N2C[C@H](Cc3ccccc3)N(CCc3ccccc3)C(=O)C2=O)C1=O"
-1.45

Give me measured inhibition, please, for this compound: COc1cc(NC(=O)C2CCCN(S(=O)(=O)c3ccc(C(C)(C)C)cc3)C2)cc(OC)c1 (centres undefined)
5.8

Entry COc1cccc(CNC(=O)COC(=O)CN2C(=O)NC3(CCCCC3C)C2=O)c1 (centres undefined) needs its inhibition filled in; supply it.
1.52

Give inhibition for "CCNc1nc(Oc2ccc(C(=O)OC)cc2)nc(N2CCOCC2)n1"
3.37

Report inhibition, nothing else, for this compound: COc1ccc(N2C(=O)CC(Nc3ccc(F)cc3)C2=O)c([N+](=O)[O-])c1 (centres undefined)
-1.86

Quickly give me recorded inhibition for "Cc1c(C(=O)OCC(=O)N2CCCC2=O)oc2ccccc12"
-0.28

Read the entry "CCOC(=O)N1CCN(C(=O)c2ccccc2N(Cc2ccccc2)S(=O)(=O)c2ccc(OC)cc2)CC1" and write its reported inhibition.
-1.48
